assay: Times to onset, minimal and maximal, observed in the indexed observations. [column 'DELAI' in source]; settings: human
Measured Hepatotoxicity (time to onset) accompanies every entry in the list below.

# Molecule, Hepatotoxicity (time to onset)
measured = [
    ("c1ccc([C@H]2CN3CCSC3=N2)cc1", "1 month - 1 year"),
    ("CCc1c(C)[nH]c2c1C(=O)C(CN1CCOCC1)CC2 (configuration not stated)", "1 month"),
    ("CNC=O", "3 days - 1 week"),
    ("CC12CCC(CC1=O)C2(C)C (configuration not stated)", "3 days"),
    ("CN(C)CC/C=C1\\c2ccccc2CSc2ccccc21 [DOTHIEPIN]", "40 days - 69 days"),
    ("COc1cccc2c1C(=O)c1c(O)c3c(c(O)c1C2=O)C[C@@](O)(C(C)=O)C[C@@H]3O[C@H]1C[C@H](N)[C@H](O)[C@H](C)O1", "3 cures"),
    ("CC(=O)N(O)CCCCCNC(=O)CCC(=O)N(O)CCCCCNC(=O)CCC(=O)N(O)CCCCCN", "6 weeks"),
    ("CC(=O)Oc1cc(C(C)C)c(OCCN(C)C)cc1C", "8 days - 3 months"),
    ("CCC(Cc1c(I)cc(I)c(N)c1I)C(=O)O (configuration not stated)", "1 week"),
    ("Nc1ccn([C@@H]2CS[C@H](CO)O2)c(=O)n1", "10 days - 3 years"),
    ("COc1cc(C(=O)NS(=O)(=O)c2ccccc2C)ccc1Cc1cn(C)c2ccc(NC(=O)OC3CCCC3)cc12", "2 months - 1 year"),
    ("CCN1CCN(C(=O)N[C@@H](C(=O)N[C@@H]2C(=O)N3[C@@H]2SC(C)(C)[C@@H]3C(=O)O)c2ccccc2)C(=O)C1=O", "2 weeks"),
    ("Cc1ccccc1N1C(=O)c2cc(S(N)(=O)=O)c(Cl)cc2NC1C (configuration not stated)", "8 days - 3 months"),
    ("Cc1ccc(-c2nc3ccc(C)cn3c2CC(=O)N(C)C)cc1", "1 day - 3 days"),
    ("Sc1ncnc2[nH]ncc12", "1.5 months"),
    ("O=C(NCC1CCCCN1)c1cc(OCC(F)(F)F)ccc1OCC(F)(F)F (configuration not stated) [FLECAINIDE]", "2 days - 1 month"),
    ("CCN(CC)CCOc1ccc(C(=C(Cl)c2ccccc2)c2ccccc2)cc1", "2 weeks - 8 years"),
    ("CC1(C)S[C@@H]2[C@H](NC(=O)[C@H](C(=O)O)c3ccsc3)C(=O)N2[C@H]1C(=O)O.O=C(O)[C@H]1/C(=C/CO)O[C@@H]2CC(=O)N21", "1 day - 6 weeks"),
    ("O=c1ccc2ccccc2o1", "5 days - 6 months"),
    ("CCn1cc(C(=O)O)c(=O)c2ccc(C)nc21", "2 weeks"),
    ("CC[C@H]1OC(=O)[C@H](C)[C@@H](O[C@H]2C[C@@](C)(OC)[C@@H](O)[C@H](C)O2)[C@H](C)[C@@H](O[C@@H]2O[C@H](C)C[C@H](N(C)C)[C@H]2O)[C@](C)(O)C[C@@H](C)C(=O)[C@H](C)[C@@H](O)[C@]1(C)O", "12 hours - 5 weeks"),
    ("C[C@H](CCC(=O)O)[C@H]1CC[C@H]2[C@@H]3[C@H](O)C[C@@H]4C[C@H](O)CC[C@]4(C)[C@H]3CC[C@]12C", "3 weeks - 3 months"),
]
